Listing: MIC99 of selected molecules
- Test system: Mycobacterium tuberculosis
- Method description: Antitubercular activity against Mycobacterium tuberculosis CNCTC My 331/88 (H37Rv) assessed as inhibition of bacterial growth measured after 21 days of incubation by Sulas semisynthetic medium based assay
- Assay type: functional
- Test parameters: 504 h, time 21 day
Give the value in µM but do not write µM after it.

Record excerpt, results attached:
>>> experimental_result("O=c1[nH]c(N2CCSCC2)nc2ncn(Cc3ccc4ccccc4c3)c12")
4
>>> experimental_result("CN(C)c1nc(N2CCOCC2)nc2ncn(Cc3ccc4ccccc4c3)c12")
16
>>> experimental_result("CNc1nc(N2CCOCC2)nc2ncn(Cc3ccc4ccccc4c3)c12")
4
>>> experimental_result("CSc1nc(N2CCOCC2)nc2ncn(Cc3ccc4ccccc4c3)c12")
8
>>> experimental_result("CCNc1nc(N2CCOCC2)nc2ncn(Cc3ccc4ccccc4n3)c12")
8

Field: next molecule
Task item: Param readout = MIC99; param system = Mycobacterium tuberculosis; param query = "O=c1[nH]c(N2CCOCC2)nc2ncn(Cc3ccc4ccccc4c3)c12" ; response: value
Reply: 4

---

- Test system: Mycobacterium tuberculosis
- Method description: Antimycobacterial activity against MDR clinical isolate Mycobacterium tuberculosis 7357/1998 assessed as inhibition of mycobacterial growth measured after 14 to 21 days of incubation by Sulas semisynthetic medium based assay
- Assay type: functional
- Test parameters: time 14-21 day
Listing: MIC99 of selected compounds

Record excerpt, results attached:
>>> experimental_result("O=c1[nH]c(N2CCOCC2)nc2ncn(Cc3ccc4ccccc4c3)c12")
"32 µM"
>>> experimental_result("COc1nc(N2CCOCC2)nc2ncn(Cc3ccc4ccccc4c3)c12")
"16 µM"
>>> experimental_result("O=c1[nH]c(N2CCSCC2)nc2ncn(Cc3ccc4ccccc4c3)c12")
"16 µM"
>>> experimental_result("c1ccc2cc(Cn3cnc4nc(N5CCOCC5)nc(NC5CCC5)c43)ccc2c1")
"4 µM"
>>> experimental_result("O=c1[nH]c(N2CCCCC2)nc2ncn(Cc3ccc4ccccc4c3)c12")
"16 µM"

Field: next compound
Task item: Would you mind telling me what MIC99 value was observed for "c1ccc(CNc2nc(N3CCOCC3)nc3ncn(Cc4ccc5ccccc5c4)c23)cc1" ?
Reply: 2 µM

---

- Tested on: Mycobacterium tuberculosis
- Method description: Antitubercular activity against Mycobacterium tuberculosis CNCTC My 331/88 (H37Rv) assessed as inhibition of bacterial growth measured after 21 days of incubation by Sulas semisynthetic medium based assay
- Assay type: functional
- Test parameters: 504 h, time 21 day
Listing: MIC99 of selected compounds
Give the value in µM but do not write µM after it.

>>> experimental_result("O=c1[nH]c(N2CCOCC2)nc2ncn(Cc3ccc(Cl)c(Cl)c3)c12")
32
>>> experimental_result("CC(C)c1ccc(Cn2cnc3nc(N4CCOCC4)[nH]c(=O)c32)cc1")
32
>>> experimental_result("COc1ccc(Cn2cnc3nc(N4CCOCC4)[nH]c(=O)c32)cc1")
64

Field: next compound
Task item: Would you mind telling me what MIC99 value was observed for "Clc1ncnc2ncn(Cc3ccc4ccccc4c3)c12" ?
Reply: 125

---

- Tested on: Mycobacterium tuberculosis
- Method description: Antitubercular activity against Mycobacterium tuberculosis CNCTC My 331/88 (H37Rv) assessed as inhibition of bacterial growth measured after 21 days of incubation by Sulas semisynthetic medium based assay
- Format: functional
- Test parameters: 504 h, time 21 day
Measure: log10 MIC99 (log10 of the value in µM)
Response schema: value (number) is log10 of MIC99 in units of µM.

Task item: Would you mind telling me what log10 MIC99 value was observed for "O=c1[nH]c(N2CCCCC2)nc2ncn(Cc3ccc4ccccc4c3)c12" ?
Reply: 0.60

Task item: Please do the same for "CCOc1nc(N2CCOCC2)nc2ncn(Cc3ccc4ccccc4c3)c12" as well.
Reply: 0.30
